# Subject of test: Pol Theta (1-894) (Homo sapiens (Human), UniProt O75417)
# Sequence (O75417 1-894): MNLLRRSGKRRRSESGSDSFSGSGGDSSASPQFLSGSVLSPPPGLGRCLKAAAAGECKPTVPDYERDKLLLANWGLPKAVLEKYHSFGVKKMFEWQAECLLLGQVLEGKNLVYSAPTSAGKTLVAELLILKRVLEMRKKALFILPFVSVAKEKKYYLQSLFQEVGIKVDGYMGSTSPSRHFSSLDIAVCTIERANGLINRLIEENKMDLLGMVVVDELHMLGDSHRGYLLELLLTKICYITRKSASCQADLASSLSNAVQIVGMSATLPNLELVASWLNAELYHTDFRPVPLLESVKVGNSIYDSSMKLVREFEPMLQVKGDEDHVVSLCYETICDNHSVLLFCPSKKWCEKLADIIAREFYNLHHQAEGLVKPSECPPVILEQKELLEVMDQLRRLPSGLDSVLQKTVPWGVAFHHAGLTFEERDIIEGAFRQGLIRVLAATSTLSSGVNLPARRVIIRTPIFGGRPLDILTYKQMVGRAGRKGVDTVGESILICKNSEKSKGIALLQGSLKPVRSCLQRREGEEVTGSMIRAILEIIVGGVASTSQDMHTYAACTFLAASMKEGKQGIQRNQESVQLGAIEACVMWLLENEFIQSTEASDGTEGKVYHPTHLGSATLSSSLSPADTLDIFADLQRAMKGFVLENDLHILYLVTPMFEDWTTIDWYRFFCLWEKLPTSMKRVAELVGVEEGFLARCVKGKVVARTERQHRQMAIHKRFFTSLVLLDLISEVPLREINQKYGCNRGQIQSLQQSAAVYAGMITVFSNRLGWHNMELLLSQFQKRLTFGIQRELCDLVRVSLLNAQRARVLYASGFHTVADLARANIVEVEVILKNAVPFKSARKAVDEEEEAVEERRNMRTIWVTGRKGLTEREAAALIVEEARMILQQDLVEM
# Measurement protocol: Biochemical Pol Theta (1-894) ATPase IC50 assay (ADP-Glo, ssDNA substrate)
# Condition label: ADP-Glo assay with ssDNA substrate, room temperature
# Procedure: Baculovirus Expression of Human POL theta (1-894) Human POL Theta (1-894)-His-pFastBac1 baculovirus samples were generated using the Bac-to-Bac baculovirus expression system (Invitrogen) according to the manufacturer's protocol. […] Enzymatic reactions of Pol Theta (1-894) were performed using ADP-Glo assay with ssDNA substrate. […] Luminescence was measured on a microplate reader (PHERAstar FSX, BMG labtech). […]
pIC50: −log10 of the molar value.
Quantity measured: pIC50

1) COc1ccc(C#N)cc1-c1cc(C)ncc1C(=O)Nc1nc2ccc(C3CCOCC3)nc2s1 :: 7.19
2) CCNC(=O)c1ccc2nc(NC(=O)c3cnncc3-c3ccccc3OC)sc2n1 :: 7.54

a: COc1ccccc1-n1cncc1C(=O)Nc1nc2ccc(-c3ccc(Cl)cc3)nc2s1
b: COc1ccc(C#N)cc1-c1cc(Cl)ncc1C(=O)Nc1nc2ccc(-c3ccc(C#N)cc3)nc2s1
Which gives the smaller pIC50 number: a or b ? Label of pick, please.
a
(a: 6.49, b: 8.07)
